Values compiled from paper PMC10397247.

Target: T1, 4H626-bH
T1 chain: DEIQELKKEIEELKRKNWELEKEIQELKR
Test: two-hybrid library CCNG1;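 also: natural log of median RNA to DNA barcode read ratio; higher means stronger binding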
EXPERIMENTAL_READOUT: interaction score

{"columns": ["BINDER", "NUMERIC_VALUE"],
 "data": [
  ["DENQELEKKIEELKRENWELKKKIQELER [4H1373-bH]", -0.984],
  ["DENQELEKKIEELKREIWELEKENQELKR [4H1348-bH]", -1.01],
  ["DKNQELKKEIEELERENWELKKKIQELER [4H3613-bH]", -1.94],
  ["DEIQELKKEIEELKREIWELKKKNQELER [4H591-bH]", -0.53],
  ["DKNQELEKKNEELEREIWELEKKIQELKR [4H3462-bH]", -0.748],
  ["DKNQELEKEIEELKRKIWELEKKNQELER [4H3175-bH]", -1.62],
  ["DENQELKKENEELERKIWELKKKIQELKR [4H1710-bH]", 0.853],
  ["DKNQELEKKNEELERKIWELKKEIQELER [4H3497-bH]", -0.895]
]}
